# Tested on: IL-6 mediated inflammation in microglial cells
# Procedure Text: LPS/ATP-induced neuroinflammation in microglia: IL-6 secretion (Luminex)
# Format: cell-based, human
# Particulars: LPS (100 ng/mL) + ATP (5 mM); six hours after LPS
Would you mind telling me the reported IL-6 in supernatant, Replicate 2 of each entry?
Give just the number in pg/mL; leave the unit off.

Respond only with IL-6 in supernatant, Replicate 2 recorded for O=C([O-])CCCc1ccccc1.[Na+] [PBA, Sodium 4-phenylbutyrate] 363.94

Respond only with IL-6 in supernatant, Replicate 2 recorded for C[C@H](CCC(=O)NCCS(=O)(=O)O)[C@H]1CC[C@H]2[C@@H]3[C@@H](O)C[C@@H]4C[C@H](O)CC[C@]4(C)[C@H]3CC[C@]12C [TUDCA, Tauroursodeoxycholic acid] 442.87

Respond only with IL-6 in supernatant, Replicate 2 recorded for CC(C)(O)c1coc(S(=O)(=O)NC(=O)Nc2c3c(cc4c2CCC4)CCC3)c1 [MCC950] 297.91

====

# Test system: CXCL1/GROα mediated neuroinflammation in microglial cells
# Procedure Text: LPS/ATP-induced neuroinflammation in microglia: CXCL1/GROα secretion (Luminex)
# Type: cell-based, human
# Particulars: LPS (100 ng/mL) + ATP (5 mM); six hours after LPS
Would you mind telling me the reported CXCL1/GROα in supernatant, Replicate 1 of each entry?
Give just the number in pg/mL; leave the unit off.

Respond only with CXCL1/GROα in supernatant, Replicate 1 recorded for C[C@H](CCC(=O)NCCS(=O)(=O)O)[C@H]1CC[C@H]2[C@@H]3[C@@H](O)C[C@@H]4C[C@H](O)CC[C@]4(C)[C@H]3CC[C@]12C 447.19

Respond only with CXCL1/GROα in supernatant, Replicate 1 recorded for CCOC(=O)C1=CCCC[C@H]1S(=O)(=O)Nc1ccc(F)cc1Cl 35.76

Respond only with CXCL1/GROα in supernatant, Replicate 1 recorded for CC(C)(O)c1coc(S(=O)(=O)NC(=O)Nc2c3c(cc4c2CCC4)CCC3)c1 375.70

Respond only with CXCL1/GROα in supernatant, Replicate 1 recorded for O=C([O-])CCCc1ccccc1.[Na+] [PBA, Sodium 4-phenylbutyrate] 627.29

====

Would you mind telling me the reported TNF-α in supernatant, Mean ± S.D. of each entry?
# Tested on: TNF-α mediated neuroinflammation in microglial cells
# Procedure Text: LPS/ATP-induced neuroinflammation in microglia: TNF-α secretion (Luminex)
# Format: cell-based, human
# Particulars: LPS (100 ng/mL) + ATP (5 mM); six hours after LPS
Give just the number in pg/mL; leave the unit off.

Respond only with TNF-α in supernatant, Mean ± S.D. recorded for O=C([O-])CCCc1ccccc1.[Na+] [PBA, Sodium 4-phenylbutyrate] 33.46

Respond only with TNF-α in supernatant, Mean ± S.D. recorded for C[C@H](CCC(=O)NCCS(=O)(=O)O)[C@H]1CC[C@H]2[C@@H]3[C@@H](O)C[C@@H]4C[C@H](O)CC[C@]4(C)[C@H]3CC[C@]12C 28.57

Respond only with TNF-α in supernatant, Mean ± S.D. recorded for CC(C)(O)c1coc(S(=O)(=O)NC(=O)Nc2c3c(cc4c2CCC4)CCC3)c1 30.95

Respond only with TNF-α in supernatant, Mean ± S.D. recorded for CCOC(=O)C1=CCCC[C@H]1S(=O)(=O)Nc1ccc(F)cc1Cl 5.63

====

Would you mind telling me the reported TNF-α in supernatant, Replicate 1 of each entry?
# Test system: TNF-α mediated neuroinflammation in microglial cells
# Procedure Text: LPS/ATP-induced neuroinflammation in microglia: TNF-α secretion (Luminex)
# Assay type: cell-based, human
# Particulars: LPS (100 ng/mL) + ATP (5 mM); six hours after LPS
Give just the number in pg/mL; leave the unit off.

Respond only with TNF-α in supernatant, Replicate 1 recorded for O=C([O-])CCCc1ccccc1.[Na+] [PBA, Sodium 4-phenylbutyrate] 32.67

Respond only with TNF-α in supernatant, Replicate 1 recorded for CC(C)(O)c1coc(S(=O)(=O)NC(=O)Nc2c3c(cc4c2CCC4)CCC3)c1 29.44

Respond only with TNF-α in supernatant, Replicate 1 recorded for C[C@H](CCC(=O)NCCS(=O)(=O)O)[C@H]1CC[C@H]2[C@@H]3[C@@H](O)C[C@@H]4C[C@H](O)CC[C@]4(C)[C@H]3CC[C@]12C 29.01

====

# System: CXCL1/GROα mediated neuroinflammation in microglial cells
# Procedure Text: LPS/ATP-induced neuroinflammation in microglia: CXCL1/GROα secretion (Luminex)
# Format: cell-based, human
# Particulars: LPS (100 ng/mL) + ATP (5 mM); six hours after LPS
Reported Metric: CXCL1/GROα in supernatant, Replicate 3 (pg/mL)
Give just the number in pg/mL; leave the unit off.

Look up and report CXCL1/GROα in supernatant, Replicate 3, with CXCL1/GROα mediated neuroinflammation in microglial cells as system, for C[C@H](CCC(=O)NCCS(=O)(=O)O)[C@H]1CC[C@H]2[C@@H]3[C@@H](O)C[C@@H]4C[C@H](O)CC[C@]4(C)[C@H]3CC[C@]12C 458.86

Look up and report CXCL1/GROα in supernatant, Replicate 3, with CXCL1/GROα mediated neuroinflammation in microglial cells as system, for CC(C)(O)c1coc(S(=O)(=O)NC(=O)Nc2c3c(cc4c2CCC4)CCC3)c1 533.31

Look up and report CXCL1/GROα in supernatant, Replicate 3, with CXCL1/GROα mediated neuroinflammation in microglial cells as system, for CCOC(=O)C1=CCCC[C@H]1S(=O)(=O)Nc1ccc(F)cc1Cl 44.55

Look up and report CXCL1/GROα in supernatant, Replicate 3, with CXCL1/GROα mediated neuroinflammation in microglial cells as system, for O=C([O-])CCCc1ccccc1.[Na+] [PBA, Sodium 4-phenylbutyrate] 476.49
